# TEST TARGET: P2X7 receptor (Homo sapiens)
# METHOD SUMMARY: IL-1β release assay in differentiated THP-1 cells stimulated with BzATP (Example 9)
# MEASUREMENT SETUP: THP-1 cells, BzATP-stimulated IL-1β release, four parameter logistic fit
PROPERTY MEASURED: pIC50
Answers are plain numbers, as −log10 of the molar value.

CC(=O)OCCn1ccc2c(NC(=O)CC3CCCCC3)cccc2c1=O	7.38
CN(C)CCn1ccc2c(NC(=O)c3ccccc3)cccc2c1=O	7.00
CC(=O)OCCn1ccc2c(NC(=O)CCc3cc(C(F)(F)F)cc(C(F)(F)F)c3)cccc2c1=O	6.14

Consider the additional molecule presented here.
So what's the measured pIC50 for this one? CC(=O)OCCn1ccc2c(NC(=O)Cc3ccc(Cl)c(C(F)(F)F)c3)cccc2c1=O 8.27

----------
# TEST TARGET: P2X7 receptor (Homo sapiens)
# Construct: host or cells: THP-1 cells differentiated with LPS and IFN-γ
# METHOD SUMMARY: IL-1β release assay in differentiated THP-1 cells stimulated with BzATP (Example 9)
# Type: cell-based
# Set-up: dose or concentration left out as unconfirmed
# MEASUREMENT SETUP: THP-1; read-out: IL-1β % Inhib.
PROPERTY MEASURED: inhibition

Record excerpt, results attached:
O=C(Nc1cccc2c(=O)n(Cc3cccnc3)ccc12)c1ccc2ccccc2c1	0 to 25%
COCCn1ccc2c(NC(=O)Cc3ccccc3C)cccc2c1=O	26 to 50%
O=C(Nc1cccc2c(=O)n(CCCN3CCCC3=O)ccc12)c1ccc(-c2ccccc2)cc1	0 to 25%

// next item, inhibition requested
Consider the molecule COc1ccc(CC(=O)Nc2cccc3c(=O)n(CCCN4CCCC4=O)ccc23)cc1 and give its measured inhibition. 0 to 25%

----------
# TEST TARGET: P2X7 receptor (Homo sapiens)
# Construct: host or cells: THP-1 cells differentiated with LPS and IFN-γ
# Sequence (Q99572 1-595): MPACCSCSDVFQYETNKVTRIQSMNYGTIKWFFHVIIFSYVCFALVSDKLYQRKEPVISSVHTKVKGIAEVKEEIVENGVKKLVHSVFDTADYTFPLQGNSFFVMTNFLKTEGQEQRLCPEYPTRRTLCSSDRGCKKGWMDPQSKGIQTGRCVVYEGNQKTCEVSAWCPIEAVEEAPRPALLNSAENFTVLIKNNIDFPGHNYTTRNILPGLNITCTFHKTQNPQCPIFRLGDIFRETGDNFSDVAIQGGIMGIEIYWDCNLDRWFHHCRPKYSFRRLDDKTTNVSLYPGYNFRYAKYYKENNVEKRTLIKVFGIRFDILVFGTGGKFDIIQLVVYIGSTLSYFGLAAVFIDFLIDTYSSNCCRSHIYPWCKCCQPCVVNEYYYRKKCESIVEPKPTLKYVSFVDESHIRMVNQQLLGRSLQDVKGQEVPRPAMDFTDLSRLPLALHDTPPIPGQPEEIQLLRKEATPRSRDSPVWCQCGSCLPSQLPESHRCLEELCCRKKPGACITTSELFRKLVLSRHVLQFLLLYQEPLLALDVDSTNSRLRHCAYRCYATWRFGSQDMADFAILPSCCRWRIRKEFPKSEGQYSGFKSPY
# METHOD SUMMARY: IL-1β release assay in differentiated THP-1 cells stimulated with BzATP (Example 9)
# Type: cell-based
# Set-up: dose or concentration left out as unconfirmed
# MEASUREMENT SETUP: THP-1; read-out: IL-1β % Inhib.
PROPERTY MEASURED: inhibition

Here's what some known entries look like.
O=C1CCCN1CCCn1ccc2c(NC(=O)[C@@]34C[C@@H]5C[C@@H](C[C@@H]3C5)C4)cccc2c1=O	0 to 25%
CCOc1ccccc1CC(=O)Nc1cccc2c(=O)n(CCCN3CCCC3=O)ccc12	26 to 50%
O=C(Nc1cccc2c(=O)n(Cc3ccc(OC(F)(F)F)cc3)ccc12)c1ccccc1Cl	0 to 25%
COc1ccc(CC(=O)Nc2cccc3c(=O)n(Cc4ccc(OC(F)(F)F)cc4)ccc23)cc1	26 to 50%
Cc1cccc(C(=O)Nc2cccc3c(=O)n(CCCN4CCCC4=O)ccc23)c1	0 to 25%
Cc1ccccc1CCC(=O)Nc1cccc2c(=O)n(CC3CCN(C)CC3)ccc12	0 to 25%
O=C(Cc1ccccc1Cl)Nc1cccc2c(=O)n(CCCN3CCCC3=O)ccc12	0 to 25%
COc1cc(OC)cc(C(=O)Nc2cccc3c(=O)n(Cc4ccc(OC(F)(F)F)cc4)ccc23)c1	26 to 50%

I have 6 compounds here; please give me inhibition for each one.
1. CC(C)Cc1ccc(C(=O)Nc2cccc3c(=O)n(C)ccc23)cc1
2. Cc1cccc(C(=O)Nc2cccc3c(=O)n(CCCN4CCCC4=O)ccc23)c1Cl
3. O=C(Nc1cccc2c(=O)n(CCCN3CCCC3=O)ccc12)c1cc2ccccc2o1
4. COc1ccc(CC(=O)Nc2cccc3c(=O)n(CC4CCN(C)CC4)ccc23)cc1OC
5. Cc1cccc(CCC(=O)Nc2cccc3c(=O)n(CCCN4CCCC4=O)ccc23)c1
6. Cc1ccccc1C(=O)Nc1cccc2c(=O)n(C)ccc12

["0 to 25%", "0 to 25%", "0 to 25%", "0 to 25%", "0 to 25%", "0 to 25%"]

Would you mind giving inhibition for every compound in the list below?
1. COc1cccc(CCC(=O)Nc2cccc3c(=O)n(Cc4ccc(OC(F)(F)F)cc4)ccc23)c1
2. CN1CCC(Cn2ccc3c(NC(=O)c4ccc5ccccc5c4)cccc3c2=O)CC1
3. O=C(Nc1cccc2c(=O)n(Cc3cccnc3)ccc12)c1cc(Cl)cc(Cl)c1

1. 0 to 25%
2. 0 to 25%
3. 0 to 25%

----------
Give inhibition at 0.3 µM for every item shown.
# TEST TARGET: P2X7 receptor (Homo sapiens)
# Construct: host or cells: THP-1 cells differentiated with LPS and IFN-γ
# METHOD SUMMARY: IL-1β release assay in differentiated THP-1 cells stimulated with BzATP (Example 9)
# Format: cell-based
# MEASUREMENT SETUP: 0.3 μM compound; differentiated THP-1 cells, BzATP 250 uM; symbols + to ++++; read-out: IL-1β % Inhib. @ 0.3 μM

Examples with their reported inhibition at 0.3 µM follow.
CC(C)(C)Cn1ccc2c(NC(=O)c3cc4ccccc4o3)cccc2c1=O [Compound 1264]	0 to 25%
O=C(Cc1ccc2c(c1)OCO2)Nc1cccc2c(=O)n(CCN3CCOCC3)ccc12 [Compound 1217]	0 to 25%
COc1ccc(CC(=O)Nc2cccc3c(=O)n(Cc4cccnc4)ccc23)cc1 [Compound 1355]	0 to 25%
O=C(Nc1cccc2c(=O)n(Cc3cccnc3)ccc12)c1cc2ccccc2o1 [Compound 1358]	0 to 25%
COCCn1ccc2c(NC(=O)c3ccc4c(c3)OCCCO4)cccc2c1=O [Compound 1328]	0 to 25%
CCOc1ccc(CC(=O)Nc2cccc3c(=O)n(CCN4CCOCC4)ccc23)cc1 [Compound 1213]	0 to 25%

Batch lookup, inhibition at 0.3 µM per entry.
1. CCOc1ccccc1CC(=O)Nc1cccc2c(=O)n(C)ccc12 [Compound 1307]
2. CC(C)(C)Cn1ccc2c(NC(=O)c3ccccc3Cl)cccc2c1=O [Compound 1244]
3. O=C(Nc1cccc2c(=O)n(Cc3cccnc3)ccc12)c1ccc2c(c1)OCCCO2 [Compound 1364]
4. Cn1ccc2c(NC(=O)[C@@]34C[C@@H]5C[C@@H](C[C@@H]3C5)C4)cccc2c1=O [Compound 1303]
5. COc1cccc(CC(=O)Nc2cccc3c(=O)n(CCN4CCOCC4)ccc23)c1 [Compound 1209]
6. COc1cc(CC(=O)Nc2cccc3c(=O)n(CCN4CCOCC4)ccc23)cc(OC)c1 [Compound 1218]
7. CC(=O)OCCn1ccc2c(NC(=O)Cc3ccc(Cl)cc3Cl)cccc2c1=O [Compound 1381]
8. COc1c(C)cc(C(=O)Nc2cccc3c(=O)n(CC(C)(C)C)ccc23)cc1C [Compound 1267]

["0 to 25%", "0 to 25%", "0 to 25%", "0 to 25%", "0 to 25%", "26 to 50%", "≥ 76%", "0 to 25%"]

Give inhibition at 0.3 µM for all molecules that follow.
1. CC(C)(C)Cn1ccc2c(NC(=O)C3C[C@@H]4CC[C@H]3C4)cccc2c1=O (stereo partly shown) [Compound 1277]
2. CC(=O)OCCn1ccc2c(NC(=O)CC3CCCCCC3)cccc2c1=O [Compound 1375]
3. COc1ccc(CC(=O)Nc2cccc3c(=O)n(Cc4cccnc4)ccc23)c(OC)c1 [Compound 1365]
4. O=C(CC1CCCCCC1)Nc1cccc2c(=O)n(CC3CCOCC3)ccc12 [Compound 1373]
5. Cc1ccc(C(=O)Nc2cccc3c(=O)n(CCN4CCOCC4)ccc23)cc1Cl [Compound 1220]

1: ≥ 76%; 2: ≥ 76%; 3: 0 to 25%; 4: ≥ 76%; 5: 0 to 25%
